- ASSAY_REMARKS: Plasma pharmacokinetics of liposome-entrapped and free topotecan in rats
- Assay type: in vivo
- TEST_CONDITIONS: rat, plasma, iv, Dosage = 5 mg/kg, read-out: T ½ (converted)
MEASURED_ENDPOINT: half-life

// half-life lookup, molecule = CC[C@@]1(O)C(=O)OCc2c1cc1n(c2=O)Cc2cc3c(CN(C)C)c(O)ccc3nc2-1 [free topotecan] , result: 18 min

* * *

- ASSAY_REMARKS: in vivo
- TEST_CONDITIONS: rat
MEASURED_ENDPOINT: half-life

// CC[C@@]1(O)C(=O)OCc2c1cc1n(c2=O)Cc2c-1nc1cc3c(cc1c2CN1CCN(C)CC1)OCCO3 [free MPE-camptothecin] : half-life value = ~50 min
